Catalogue of compounds with associated residual activity
Target: MAP2K2 (human) (UniProt P36507)
Sequence (P36507 whole entry, looked up): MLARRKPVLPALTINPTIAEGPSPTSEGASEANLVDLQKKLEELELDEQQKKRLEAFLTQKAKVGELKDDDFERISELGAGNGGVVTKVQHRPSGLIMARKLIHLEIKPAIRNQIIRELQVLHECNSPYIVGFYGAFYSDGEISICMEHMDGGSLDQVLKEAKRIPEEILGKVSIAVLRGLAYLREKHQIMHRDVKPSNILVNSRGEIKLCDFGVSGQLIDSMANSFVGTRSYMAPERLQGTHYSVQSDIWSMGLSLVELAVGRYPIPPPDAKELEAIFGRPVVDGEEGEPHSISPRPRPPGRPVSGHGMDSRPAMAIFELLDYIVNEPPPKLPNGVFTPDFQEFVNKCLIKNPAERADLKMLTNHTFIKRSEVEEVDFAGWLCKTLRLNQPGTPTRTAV
Assay: radiometric filter-binding kinase assay, Kinase HotSpot
Conditions: compound 0.5 µM; ATP 10 µM
Parameter: residual activity (%)

Compound	Reported Value
CCCNC(=O)Nc1ccc(Oc2ncnc3cc(OC)c(OC)cc23)cc1Cl	99.9
Nc1nc(Nc2ccc(S(N)(=O)=O)cc2)nn1C(=S)Nc1c(F)cccc1F	96.6
CS(=O)c1ccc(-c2nc(-c3ccc(F)cc3)c(-c3ccncc3)[nH]2)cc1 (stereo unspecified)	99.9
COc1cc2ncnc(Nc3ccc(F)c(Cl)c3)c2cc1OCCCN1CCOCC1	102
COc1ccc(-c2cnc3c(-c4ccsc4)cnn3c2)cc1	95.5
Nc1n[nH]c2nnc(-c3c(-c4ccccc4)nn4ccccc34)cc12	99.4
O=C(NC(NC(=S)Nc1ccc(F)c([N+](=O)[O-])c1)C(Cl)(Cl)Cl)C(c1ccccc1)c1ccccc1 (stereo unspecified)	82.3
Cc1ccc(NC(=O)c2ccc(CN3CCN(C)CC3)cc2)cc1Nc1nc(-c2cccnc2)cs1	114
CSc1nc(-c2ccc(F)cc2)c(-c2ccnc(NC(C)c3ccccc3)c2)[nH]1 (stereo unspecified)	78.6
CC(C)(C)c1nc2c3ccc(F)cc3c3c(=O)[nH]ccc3c2[nH]1	82.1
CCN1/C(=C/C(C)=O)Sc2ccc(OC)cc21	86.4
O=C1Nc2cc(Br)ccc2/C1=C1/Nc2ccccc2/C1=N\O	92.4
COc1cc2nccc(Oc3ccc(NC(=S)NC(=O)c4ccccc4C)cc3)c2cc1OC	79.4
Oc1ccc(-c2nc(-c3ccc(F)cc3)c(-c3ccncc3)[nH]2)cc1	101
CC(C)[C@H](CO)Nc1nc(Nc2cccc(Cl)c2)c2ncn(C(C)C)c2n1	104
O=C1Cc2c([nH]c3ccc([N+](=O)[O-])cc23)-c2ccccc2N1	92.5
C#Cc1cccc(Nc2ncnc3cc(OCCOC)c(OCCOC)cc23)c1	105
Nc1nc(Nc2ccc(S(N)(=O)=O)cc2)nn1C(=O)c1c(F)cccc1F	85.6
O=c1cc(N2CCNCC2)oc2c(-c3ccccc3)cccc12	94
O=C(Nc1ccc(Cl)cc1)c1ccccc1NCc1ccncc1	102
CC(C)n1cnc2c(Nc3cccc(Cl)c3)nc(NCCO)nc21	97.6
NC(=O)c1ccc(N(C(N)=O)c2c(F)cccc2F)nc1-c1ccc(F)cc1F	92.3
O=c1cc(-c2cccc3c2Sc2ccccc2S3)oc(N2CCOCC2)c1	81.8
Cc1cc2ncc(-c3ccccc3)nc2cc1C	97.6
Clc1ccc(Nc2nnc(Cc3ccncc3)c3ccccc23)cc1	100
O=C1Nc2ccccc2/C1=C\c1c(Cl)[nH]c2ccccc12	98.7

###

Target: UniProtKB P53355
Sequence (P53355 whole entry, looked up): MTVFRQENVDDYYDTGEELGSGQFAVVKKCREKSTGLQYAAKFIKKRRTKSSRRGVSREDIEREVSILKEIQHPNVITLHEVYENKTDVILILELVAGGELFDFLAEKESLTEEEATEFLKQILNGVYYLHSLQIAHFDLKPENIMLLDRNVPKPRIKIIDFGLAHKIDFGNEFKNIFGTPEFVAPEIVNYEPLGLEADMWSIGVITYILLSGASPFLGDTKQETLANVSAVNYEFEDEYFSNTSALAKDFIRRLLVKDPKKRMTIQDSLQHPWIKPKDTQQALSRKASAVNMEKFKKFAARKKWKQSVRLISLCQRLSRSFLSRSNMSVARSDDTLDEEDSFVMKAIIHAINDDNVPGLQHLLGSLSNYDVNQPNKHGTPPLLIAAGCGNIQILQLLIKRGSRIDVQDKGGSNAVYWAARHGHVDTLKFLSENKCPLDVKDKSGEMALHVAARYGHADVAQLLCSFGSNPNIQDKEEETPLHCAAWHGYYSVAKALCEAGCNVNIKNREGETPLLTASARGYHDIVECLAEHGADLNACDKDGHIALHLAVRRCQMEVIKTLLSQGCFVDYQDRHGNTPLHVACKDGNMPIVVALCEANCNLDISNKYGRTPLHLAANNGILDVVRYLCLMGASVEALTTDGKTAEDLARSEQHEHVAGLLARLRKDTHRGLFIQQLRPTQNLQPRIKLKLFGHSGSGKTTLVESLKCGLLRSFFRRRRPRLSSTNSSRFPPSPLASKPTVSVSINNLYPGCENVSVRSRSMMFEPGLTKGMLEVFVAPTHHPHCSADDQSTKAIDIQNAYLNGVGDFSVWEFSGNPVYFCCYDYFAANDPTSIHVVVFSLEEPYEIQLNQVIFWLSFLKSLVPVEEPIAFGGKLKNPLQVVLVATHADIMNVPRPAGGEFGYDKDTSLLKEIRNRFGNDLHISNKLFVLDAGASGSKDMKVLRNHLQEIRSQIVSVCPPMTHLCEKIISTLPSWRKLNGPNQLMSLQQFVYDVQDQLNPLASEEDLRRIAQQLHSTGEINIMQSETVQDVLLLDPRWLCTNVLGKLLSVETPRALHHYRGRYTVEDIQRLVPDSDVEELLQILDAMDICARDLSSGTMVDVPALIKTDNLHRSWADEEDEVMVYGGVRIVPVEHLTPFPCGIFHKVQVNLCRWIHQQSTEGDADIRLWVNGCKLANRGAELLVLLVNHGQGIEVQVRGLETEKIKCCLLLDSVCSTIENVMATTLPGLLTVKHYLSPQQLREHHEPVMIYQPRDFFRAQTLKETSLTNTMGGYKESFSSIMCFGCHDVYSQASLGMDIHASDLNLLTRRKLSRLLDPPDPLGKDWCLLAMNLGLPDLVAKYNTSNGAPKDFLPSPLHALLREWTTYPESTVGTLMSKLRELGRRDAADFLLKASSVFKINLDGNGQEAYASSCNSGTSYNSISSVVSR
Assay: radiometric filter-binding kinase assay, Kinase HotSpot
Conditions: compound 0.5 µM; ATP 10 µM

Mol	residual activity, %
CC(C)(C)c1nc2c3ccc(F)cc3c3c(=O)[nH]ccc3c2[nH]1	3.03
COc1cc2ncnc(Nc3ccc(F)c(Cl)c3)c2cc1OCCCN1CCOCC1	109
NC(=O)c1ccc(N(C(N)=O)c2c(F)cccc2F)nc1-c1ccc(F)cc1F	98.2
Nc1nc(Nc2ccc(S(N)(=O)=O)cc2)nn1C(=O)c1c(F)cccc1F	93.8

###

Catalogue of compounds with associated residual activity
Target: EPHB3 (human)
Experiment: radiometric filter-binding kinase assay, Kinase HotSpot
Settings: compound 0.5 µM; ATP 10 µM
Parameter: residual activity

Compound	Reported Value
CC(C)[C@H](CO)Nc1nc(Nc2cccc(Cl)c2)c2ncn(C(C)C)c2n1	102%
Cc1ccc(NC(=O)c2ccc(CN3CCN(C)CC3)cc2)cc1Nc1nc(-c2cccnc2)cs1	80.9%
CCCNC(=O)Nc1ccc(Oc2ncnc3cc(OC)c(OC)cc23)cc1Cl	93.7%
CS(=O)c1ccc(-c2nc(-c3ccc(F)cc3)c(-c3ccncc3)[nH]2)cc1 (stereo not given)	96.7%
COc1cc2nccc(Oc3ccc(NC(=S)NC(=O)c4ccccc4C)cc3)c2cc1OC	95.7%
Clc1ccc(Nc2nnc(Cc3ccncc3)c3ccccc23)cc1	65.1%
CC(C)(C)c1nc2c3ccc(F)cc3c3c(=O)[nH]ccc3c2[nH]1	87.1%
O=c1cc(-c2cccc3c2Sc2ccccc2S3)oc(N2CCOCC2)c1	105%
CC(C)n1cnc2c(Nc3cccc(Cl)c3)nc(NCCO)nc21	119%
O=C1Cc2c([nH]c3ccc([N+](=O)[O-])cc23)-c2ccccc2N1	103%

###

Biological target: SGK2 (human)
Test: radiometric filter-binding kinase assay, Kinase HotSpot
Conditions: compound 0.5 µM; ATP 10 µM

Mol	residual activity (%)
O=C(Nc1ccc(Cl)cc1)c1ccccc1NCc1ccncc1	103
COc1cc2nccc(Oc3ccc(NC(=S)NC(=O)c4ccccc4C)cc3)c2cc1OC	97.3
CC(C)[C@H](CO)Nc1nc(Nc2cccc(Cl)c2)c2ncn(C(C)C)c2n1	103
CCN1/C(=C/C(C)=O)Sc2ccc(OC)cc21	93.7
NC(=O)c1ccc(N(C(N)=O)c2c(F)cccc2F)nc1-c1ccc(F)cc1F	107
COc1cc2ncnc(Nc3ccc(F)c(Cl)c3)c2cc1OCCCN1CCOCC1	117

###

Target: LIMK1 (human)
Test: radiometric filter-binding kinase assay, Kinase HotSpot
Conditions: compound 0.5 µM; ATP 10 µM

Molecule	Measured On	U	residual activity
Clc1ccc(Nc2nnc(Cc3ccncc3)c3ccccc23)cc1	LIMK1 (human)	%	98.9
COc1ccc(-c2cnc3c(-c4ccsc4)cnn3c2)cc1	LIMK1 (human)	%	71.2
CSc1nc(-c2ccc(F)cc2)c(-c2ccnc(NC(C)c3ccccc3)c2)[nH]1 (stereo unspecified)	LIMK1 (human)	%	103
CCN1/C(=C/C(C)=O)Sc2ccc(OC)cc21	LIMK1 (human)	%	108
Nc1nc(Nc2ccc(S(N)(=O)=O)cc2)nn1C(=S)Nc1c(F)cccc1F	LIMK1 (human)	%	-0.611
CC(C)n1cnc2c(Nc3cccc(Cl)c3)nc(NCCO)nc21	LIMK1 (human)	%	105
O=C(NC(NC(=S)Nc1ccc(F)c([N+](=O)[O-])c1)C(Cl)(Cl)Cl)C(c1ccccc1)c1ccccc1 (stereo unspecified)	LIMK1 (human)	%	94.5
CC(C)(C)c1nc2c3ccc(F)cc3c3c(=O)[nH]ccc3c2[nH]1	LIMK1 (human)	%	73.7
O=c1cc(-c2cccc3c2Sc2ccccc2S3)oc(N2CCOCC2)c1	LIMK1 (human)	%	103
O=C1Nc2ccccc2/C1=C\c1c(Cl)[nH]c2ccccc12	LIMK1 (human)	%	109
O=C1Nc2cc(Br)ccc2/C1=C1/Nc2ccccc2/C1=N\O	LIMK1 (human)	%	51.7

###

Target: KDR (human) (UniProt P35968)
Sequence (P35968 whole entry, looked up): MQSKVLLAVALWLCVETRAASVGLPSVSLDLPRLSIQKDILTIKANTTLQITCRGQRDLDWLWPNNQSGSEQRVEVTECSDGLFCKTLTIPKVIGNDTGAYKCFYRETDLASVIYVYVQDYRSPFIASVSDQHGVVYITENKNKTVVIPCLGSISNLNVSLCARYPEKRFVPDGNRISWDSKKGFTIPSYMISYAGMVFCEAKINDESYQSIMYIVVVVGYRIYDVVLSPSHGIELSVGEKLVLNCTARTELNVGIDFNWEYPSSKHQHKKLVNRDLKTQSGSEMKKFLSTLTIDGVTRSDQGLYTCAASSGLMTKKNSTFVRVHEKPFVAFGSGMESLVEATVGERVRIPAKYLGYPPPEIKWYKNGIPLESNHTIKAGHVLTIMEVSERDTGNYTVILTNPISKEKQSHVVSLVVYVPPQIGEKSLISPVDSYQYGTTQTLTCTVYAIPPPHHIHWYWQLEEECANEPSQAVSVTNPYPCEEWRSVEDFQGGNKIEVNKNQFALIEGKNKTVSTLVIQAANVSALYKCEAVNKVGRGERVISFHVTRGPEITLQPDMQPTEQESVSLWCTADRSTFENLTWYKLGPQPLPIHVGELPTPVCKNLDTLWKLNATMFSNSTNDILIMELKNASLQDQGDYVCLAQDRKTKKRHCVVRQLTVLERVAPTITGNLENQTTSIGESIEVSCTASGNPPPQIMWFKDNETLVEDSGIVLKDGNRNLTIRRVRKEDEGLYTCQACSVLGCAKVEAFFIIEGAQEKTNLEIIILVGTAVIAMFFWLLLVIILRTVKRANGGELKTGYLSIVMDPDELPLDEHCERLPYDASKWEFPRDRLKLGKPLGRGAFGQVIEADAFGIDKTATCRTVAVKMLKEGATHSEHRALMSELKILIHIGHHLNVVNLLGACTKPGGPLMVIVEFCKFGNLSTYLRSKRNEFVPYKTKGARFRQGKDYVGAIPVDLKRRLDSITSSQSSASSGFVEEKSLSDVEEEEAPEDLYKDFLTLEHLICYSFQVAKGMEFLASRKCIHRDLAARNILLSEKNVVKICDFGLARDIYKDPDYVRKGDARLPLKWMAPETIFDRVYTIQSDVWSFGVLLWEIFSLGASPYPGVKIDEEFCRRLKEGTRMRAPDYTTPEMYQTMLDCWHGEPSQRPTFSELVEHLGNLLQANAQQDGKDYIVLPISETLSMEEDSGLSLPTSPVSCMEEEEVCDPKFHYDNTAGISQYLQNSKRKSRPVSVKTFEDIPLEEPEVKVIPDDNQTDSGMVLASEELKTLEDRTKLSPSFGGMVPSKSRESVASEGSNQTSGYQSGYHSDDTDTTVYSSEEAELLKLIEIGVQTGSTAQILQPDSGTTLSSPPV
Test: radiometric filter-binding kinase assay, Kinase HotSpot
Details: compound 0.5 µM; ATP 10 µM

Compound	U	residual activity
O=C1Nc2cc(Br)ccc2/C1=C1/Nc2ccccc2/C1=N\O	%	64.2
COc1cc2nccc(Oc3ccc(NC(=S)NC(=O)c4ccccc4C)cc3)c2cc1OC	%	74.1
CSc1nc(-c2ccc(F)cc2)c(-c2ccnc(NC(C)c3ccccc3)c2)[nH]1 (stereo not drawn)	%	83.5
O=c1cc(N2CCNCC2)oc2c(-c3ccccc3)cccc12	%	99.8
NC(=O)c1ccc(N(C(N)=O)c2c(F)cccc2F)nc1-c1ccc(F)cc1F	%	96.5
Cc1cc2ncc(-c3ccccc3)nc2cc1C	%	99.1
CS(=O)c1ccc(-c2nc(-c3ccc(F)cc3)c(-c3ccncc3)[nH]2)cc1 (stereo not drawn)	%	99.2
Oc1ccc(-c2nc(-c3ccc(F)cc3)c(-c3ccncc3)[nH]2)cc1	%	99.9
O=c1cc(-c2cccc3c2Sc2ccccc2S3)oc(N2CCOCC2)c1	%	95.9
CC(C)(C)c1nc2c3ccc(F)cc3c3c(=O)[nH]ccc3c2[nH]1	%	103
CCN1/C(=C/C(C)=O)Sc2ccc(OC)cc21	%	104
O=C1Cc2c([nH]c3ccc([N+](=O)[O-])cc23)-c2ccccc2N1	%	87.8
Nc1nc(Nc2ccc(S(N)(=O)=O)cc2)nn1C(=S)Nc1c(F)cccc1F	%	6.55
CC(C)n1cnc2c(Nc3cccc(Cl)c3)nc(NCCO)nc21	%	103
CC(C)[C@H](CO)Nc1nc(Nc2cccc(Cl)c2)c2ncn(C(C)C)c2n1	%	95
CCCNC(=O)Nc1ccc(Oc2ncnc3cc(OC)c(OC)cc23)cc1Cl	%	19.7
Nc1nc(Nc2ccc(S(N)(=O)=O)cc2)nn1C(=O)c1c(F)cccc1F	%	64.6
Nc1n[nH]c2nnc(-c3c(-c4ccccc4)nn4ccccc34)cc12	%	101
COc1ccc(-c2cnc3c(-c4ccsc4)cnn3c2)cc1	%	79.8
O=C1Nc2ccccc2/C1=C\c1c(Cl)[nH]c2ccccc12	%	96.3
O=C(Nc1ccc(Cl)cc1)c1ccccc1NCc1ccncc1	%	28.2
Cc1ccc(NC(=O)c2ccc(CN3CCN(C)CC3)cc2)cc1Nc1nc(-c2cccnc2)cs1	%	106
O=C(NC(NC(=S)Nc1ccc(F)c([N+](=O)[O-])c1)C(Cl)(Cl)Cl)C(c1ccccc1)c1ccccc1 (stereo not drawn)	%	92.5
